target: HLA-DR DRB3*02:02 (Homo sapiens, UniProt P01903+P79483, A212P/D57E/F66Y/L67A/R103Q/R218S/R40L/S89Y/T80R/V86D/Y55F/Y59H); assay: biochemical; assay type: binding; conditions: read-out: Binding capacity/IC50 (nM) DRB3*02:02
Sequence (P01903 26-254 limits assumed): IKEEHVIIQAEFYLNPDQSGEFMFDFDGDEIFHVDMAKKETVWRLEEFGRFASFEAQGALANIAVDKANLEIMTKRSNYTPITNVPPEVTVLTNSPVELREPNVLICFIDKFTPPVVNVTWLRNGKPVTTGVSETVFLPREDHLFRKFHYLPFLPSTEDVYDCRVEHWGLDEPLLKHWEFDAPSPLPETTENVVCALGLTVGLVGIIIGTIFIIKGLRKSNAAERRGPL
Sequence (P79483 30-266 R40L/Y55F/D57E/Y59H/F66Y/L67A/T80R/V86D/S89Y/R103Q/A212P/R218S limits assumed): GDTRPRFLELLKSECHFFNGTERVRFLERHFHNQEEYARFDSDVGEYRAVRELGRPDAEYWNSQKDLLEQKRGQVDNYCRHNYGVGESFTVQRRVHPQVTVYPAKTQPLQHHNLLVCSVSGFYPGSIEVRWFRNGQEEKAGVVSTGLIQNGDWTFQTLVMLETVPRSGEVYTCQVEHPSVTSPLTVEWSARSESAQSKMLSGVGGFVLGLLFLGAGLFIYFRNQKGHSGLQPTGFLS
Ends that are not written are not given here.
quantity-measured: IC50

DEELLKAVRIIKILYQSNP-NH2 [rev(9-27)] | 4.4 nM
VVIQDNSDIKVVPRRKAKII-NH2 [integrase(249-268)] | 4530 nM
YAKMRSAHTNDVKQL-NH2 [RT(354-368)] | 2850 nM
IRYPLTFGWCFKLVPVDPREVEEA-NH2 [nef(133-156)] | > 30000 nM
SEELRSLYNTVATLYCVHQ-NH2 [p17(72-90)] | 6290 nM

Next substance, please.
So, NYPIVQNLQGQMVHQAISPR-NH2 [p17(131-132)/p24(1-18)] ? Its IC50 was 2880 nM

Numbers sourced from paper PMC3445454.
